Hey, just so you know, these numbers are from patent US20120165319A1.

Below, each entry is listed with its recorded IC50.
# Tested on: IL-1β, human whole blood
# run.description: Whole blood assay for IL-1β production
# Format: cell-based
# condition.details: Homo sapiens, * = values obtained upon reassay; read-out: Whole human blood IC50
# Description: The whole blood assay is a simple method for measuring the production of IL-1b (or other cytokines) and the activity of potential inhibitors. […] Prepare drug dilutions in sterile pyrogen-free saline by serial dilution. A dilution series which brackets the apparent Ki for a test compound determined in an ICE inhibition assay is generally used for the primary compound screen. […]
property.measured: IC50

> print(dat)
                                   molecule         system.under.test   result
1  O=C[C@H](CC(=O)O)NC(=O)[C@@H]1CCCN2C(=O)CC[C@H](NC(=O)c3cccc4ccccc34)C(=O)N12  IL-1β, human whole blood     1 µM
2  Cc1cc2c(cc1C(=O)N[C@H]1CCC(=O)N3CCC[C@@H](C(=O)N[C@H](C=O)CC(=O)O)N3C1=O)OCO2  IL-1β, human whole blood   0.4 µM
3  Cc1cc(C(=O)N[C@H]2CCC(=O)N3CCC[C@@H](C(=O)N[C@H](C=O)CC(=O)O)N3C2=O)no1  IL-1β, human whole blood     4 µM
4  CCOC(=O)C[C@H](NC(=O)[C@@H]1CCCN2C(=O)CC[C@H](NC(=O)c3ccccc3)C(=O)N12)C(OCC)OCC [Compound 2100b]  IL-1β, human whole blood  > 20 µM
